System: SF-539
assay.explanation: NCI tumour cell line growth inhibition, 48 h
Active and inactive are the calls of the source. Rule as the data show it: active = GI50 up to about 1.1 µM and inactive = higher.
# GI50 annotations

Guide cases for GI50, answers given:
compound | measured
O=C(CC(=O)C(F)(F)F)c1csc2ccccc12 | 31.6 µM (inactive)
O=[N+]([O-])c1cc(-c2nnc(C34CC5CC(CC(C5)C3)C4)o2)cc([N+](=O)[O-])c1 | > 100 µM (inactive)
Cc1cn(CCCCCOC(=O)NC(CCCNC(=N)N)C(=O)O)c(=O)[nH]c1=O (stereo unspecified) | 45.7 µM (inactive)
CC(C)(C)c1cc(C(O)(C(=O)O)C(=O)O)cc(C(C)(C)C)c1O | > 100 µM (inactive)
N=C(N)c1ccc2oc3ccc(C(=N)N)cc3c(=O)c2c1 | > 100 µM (inactive)
Nc1ncnc2c1nc(Cl)n2C1OC2COP(=O)(O)OC2C1O (stereo unspecified) | 26.8 µM (inactive)
Cn1c(=O)n2n(c1=O)C1C(=CC2)C2C=CC1n1c(=O)n(C)c(=O)n12 (stereo unspecified) | > 100 µM (inactive)
COc1cc(C(N)=O)cc(NC(=O)/C=C/c2ccccc2)c1OC | 83 µM (inactive)

GI50 reported for this compound CSc1ncc2c(n1)-c1ccccc1OC2NC(C)(C)C (stereo unspecified) : > 100 µM (inactive)

GI50 reported for this compound Cc1nc2ccccc2c(=O)n1NC(=O)c1ccc(CS)cc1 : 12.9 µM (inactive)

GI50 reported for this compound N#Cc1ccc(Oc2ccccc2)cc1C#N : > 100 µM (inactive)

----------
System: COLO 205
assay.explanation: NCI tumour cell line growth inhibition, 48 h
Active and inactive are the calls of the source. No stated cut-off is given here; in the data, active = GI50 up to about 1.1 µM and inactive = higher.
# GI50 annotations

GI50 reported for this compound Oc1nncc2[nH]c(-c3ccccc3)cc12 : 43.1 µM (inactive)

----------
Tested on: UACC-62
assay.explanation: NCI tumour cell line growth inhibition, 48 h
Calls of active or inactive are those of the source. Rule as the data show it: active = GI50 up to about 1.1 µM and inactive = higher.
Answer with one of the outcomes active, inactive

Here are 2 molecules together with their reported answers.
molecule | category.label
Clc1ccccc1C(SCc1ccccc1)SCc1ccccc1 | inactive
CC#C[C@]1(O)CCC2[C@@H]3CCC4=CC(=O)CCC4=C3[C@@H](c3ccc(N(C)C)cc3)C[C@@]21C (stereo not given in full) | inactive

Problem: Kindly provide the recorded test outcome for the following molecule: Cc1cn(CCCCCOC(=O)NC(CCCNC(=N)N)C(=O)O)c(=O)[nH]c1=O (stereo not given)
Result: inactive

Problem: Kindly provide the recorded test outcome for the following molecule: O=C1CSC2=NC3=C(CSC/C3=C\c3ccc(Cl)cc3)C(c3ccc(Cl)cc3)N12 (stereo not given)
Result: inactive

Problem: Kindly provide the recorded test outcome for the following molecule: CC[N+]1(C)CCC(O)(/C=C/c2ccc(Cl)c(Cl)c2)C(C(=O)/C=C/c2ccc(Cl)c(Cl)c2)C1 (stereo not given)
Result: inactive

----------
Test system: M19-MEL
assay.explanation: NCI tumour cell line growth inhibition, 48 h
Active and inactive are the calls of the source. No stated cut-off is given here; in the data, active = GI50 up to about 1.1 µM and inactive = higher.
Answer with one of the outcomes active, inactive

Here are 6 molecules together with their reported answers.
molecule | category.label
COC(=O)C(=O)OC1(C(C)=O)CC2(c3ccccc3)OC1(c1ccccc1)c1ccccc12 (centres undefined) | inactive
O=C1c2ccccc2N2Oc3ccccc3C12c1ccccc1 (centres undefined) | inactive
CC[C@H]1CN2CCc3cc(OC)c(OC)cc3[C@@H]2C[C@@H]1C[C@H]1NCCc2cc(O)c(OC)cc21 | active
Cc1ccc(S(=O)(=O)OC2CC=CC2)cc1 | inactive
COC(=O)C(Cc1ccccc1)/N=C/c1c(O)c(O)c(C(C)C)c2cc(C)c(-c3c(C)cc4c(C(C)C)c(O)c(O)c(/C=N/C(Cc5ccccc5)C(=O)OC)c4c3O)c(O)c12 (centres undefined) | inactive
CCCCCCC(C)OC(=O)/C=C(\CC(=O)OC(C)CCCCCC)C(=O)OC(C)CCCCCC (centres undefined) | inactive

Problem: Kindly provide the recorded test outcome for the following molecule: Cc1cc(NC(=O)C2C3C=CC(O3)C2C(=O)O)no1 (centres undefined)
Result: inactive

Problem: Kindly provide the recorded test outcome for the following molecule: CSCC1CC(c2ccc(Cl)cc2)=NO1 (centres undefined)
Result: inactive

Problem: Kindly provide the recorded test outcome for the following molecule: COC1OC(COCc2ccc(Cl)cc2)C(OCc2ccc(Cl)cc2)C1O (centres undefined)
Result: inactive

Problem: Kindly provide the recorded test outcome for the following molecule: CCCCCCCCCCCCC(Br)C(=O)NCC(N)=O (centres undefined)
Result: inactive

Problem: Kindly provide the recorded test outcome for the following molecule: CCN(CC)CCNc1c2ccccc2nc2cccc([N+](=O)[O-])c12
Result: active

Problem: Kindly provide the recorded test outcome for the following molecule: CC(C)=CC(=O)C1c2cccc(O)c2C(=O)c2c(O)cc(C)cc21 (centres undefined)
Result: inactive

Problem: Kindly provide the recorded test outcome for the following molecule: CCOC(=O)/C=C/c1c[nH]c(C(=O)OCC)c1
Result: inactive

Problem: Kindly provide the recorded test outcome for the following molecule: COC(=O)C(=O)C(C(=O)OC)C(=O)C(=O)Nc1c(C)cccc1C (centres undefined)
Result: inactive

----------
# GI50 annotations
System: IGROV-1
assay.explanation: NCI tumour cell line growth inhibition, 48 h
Calls of active or inactive are those of the source. Cut-off read from the data, not from the text of the source: active = GI50 up to about 1.1 µM and inactive = higher.

molecule | GI50
COc1ccc2nc(NC(=O)C(=O)CC(=O)c3ccc(Cl)cc3)sc2c1 | 73.1 µM (inactive)
Cc1ccc(S(=O)(=O)NC(=O)OC23COCN2COC3)cc1 | > 100 µM (inactive)
CC1CCN(c2nnc(Cl)cc2C(=O)c2ccccc2)CC1 | 35.3 µM (inactive)
O=c1c(-c2ccc3c(c2)OCO3)coc2c3c(ccc12)OCO3 | 20.8 µM (inactive)
CN1C(=O)CC(=O)N1/C(=C/c1ccccc1)c1ccccc1 | 18.2 µM (inactive)
C=CCC1(C(=O)OC(C)(C)C)C(OC)=C(C(=O)OC(C)(C)C)C2C1C(C(=O)OC(C)(C)C)=C(OC)C2(CC=C)C(=O)OC(C)(C)C (stereo unspecified) | > 100 µM (inactive)
CCOC(=O)C(C)(NC(=O)c1ccc(NCc2ccc3nc(NC(=O)c4ccccc4)nc(NC(=O)c4ccccc4)c3c2)cc1)C(=O)OCC | 19.9 µM (inactive)
COc1ccc(C(=O)Nc2ccc(O)c(=O)cc2)cc1 | 37.9 µM (inactive)
COc1ccccc1/C=N/N=C(\N)NO | 96.4 µM (inactive)
O=C1c2ccccc2N2Oc3ccccc3C12c1ccccc1 (stereo unspecified) | > 100 µM (inactive)

GI50 reported for this molecule Cc1c2c(n(CCc3ccc(Cl)cc3)c1C)NC(c1ccccc1)C(C#N)S2(=O)=O (stereo unspecified) : 17.2 µM (inactive)

GI50 reported for this molecule CC(C)(C)OC(=O)NCCCCC1NC(=O)[C@@H]2Cc3c([nH]c4ccccc34)C(C3CCCCC3)N2C1=O (stereo partly specified) : 56.5 µM (inactive)

GI50 reported for this molecule Cc1nc2ccccc2c(=O)n1NC(=O)c1ccc(CS)cc1 : 8.59 µM (inactive)

GI50 reported for this molecule O=C1C(NS(=O)(=O)c2ccccc2)=C(n2ccnc2)C(=O)c2ccccc21 : > 100 µM (inactive)

GI50 reported for this molecule CSCCC(NC(=O)OC(C)(C)C)C(=O)NCCNc1ccc(NCCNC(=O)C(CCSC)NC(=O)OC(C)(C)C)c2c1C(=O)c1ccccc1C2=O (stereo unspecified) : 3.14 µM (inactive)

GI50 reported for this molecule CN(CCn1cnc2c1c(=O)n(C)c(=O)n2C)C1CCCCC1 : > 100 µM (inactive)

GI50 reported for this molecule COc1cc(C(N)=O)cc(NC(=O)/C=C/c2ccccc2)c1OC : > 100 µM (inactive)

----------
Test system: DU-145
assay.explanation: NCI tumour cell line growth inhibition, 48 h
Activity calls are given as the source filed them. Rule as the data show it: active = GI50 up to about 1.1 µM and inactive = higher.
property.label: GI50

Guide cases for GI50, answers given:
compound | target | GI50
CC(NNC(=O)c1ccncc1)c1ccc(Cl)cc1Cl (centres undefined) | DU-145 | > 100 µM (inactive)
COc1ccc(C(=O)Sc2c(-c3ccccc3)c(=O)n(-c3ccccc3)c(=S)n2-c2ccccc2)cc1 | DU-145 | > 100 µM (inactive)
O=C(OCC1OC(n2nc(Cn3nnc(-c4cccnc4)n3)n(-c3cccc4ccccc34)c2=S)C(OC(=O)c2ccccc2)C1OC(=O)c1ccccc1)c1ccccc1 (centres undefined) | DU-145 | > 100 µM (inactive)

GI50 reported for this compound CC(C)C/C=C/C1=NN(c2cccc(S(=O)(=O)O)c2)C2(C1)SCC(=O)N2c1nc2ccccc2s1 (centres undefined) : 44.2 µM (inactive)

----------
Tested on: NCI-H460
assay.explanation: NCI tumour cell line growth inhibition, 48 h
The source made the active and inactive calls. Cut-off read from the data, not from the text of the source: active = GI50 up to about 1.1 µM and inactive = higher.
property.label: GI50

compound | target | GI50
OC/C=C(\I)CCCOCOCc1ccccc1 | NCI-H460 | 40.7 µM (inactive)
NC(=O)c1nnn(-c2ccccc2)c1O | NCI-H460 | > 100 µM (inactive)
Cc1cc(C(=C2C=CC(=N)C=C2)c2ccc(N)cc2)ccc1N | NCI-H460 | 2.52 µM (inactive)
O=C(c1ccc2ccccc2c1)C1(I)S(=O)(=O)OCCOS1(=O)=O | NCI-H460 | > 100 µM (inactive)
S=C1N(/N=C/c2c3ccccc3cc3ccccc23)C(=N\c2ccccc2)/C(=N/c2ccccc2)N1c1ccccc1 | NCI-H460 | > 100 µM (inactive)
N=C(N)c1ccc2oc3ccc(C(=N)N)cc3c(=O)c2c1 | NCI-H460 | > 100 µM (inactive)
CC(C)C/C=C/C1=NN(c2cccc(S(=O)(=O)O)c2)C2(C1)SCC(=O)N2c1nc2ccccc2s1 (stereo unspecified) | NCI-H460 | 38 µM (inactive)
Nc1cc(OCc2ccccc2)c(OCc2ccccc2)cc1C=O | NCI-H460 | 14.1 µM (inactive)

GI50 reported for this compound CC(=O)OCC1OC(Nc2ncc(-c3ccc(C)cc3)s2)C(OC(C)=O)C(OC(C)=O)C1OC(C)=O (stereo unspecified) : 31.5 µM (inactive)

GI50 reported for this compound CC(=O)N1NC(c2ccccc2)=NC(=O)C1c1cc(C)c(O)c(C)c1 (stereo unspecified) : 31.1 µM (inactive)

GI50 reported for this compound N=C(N)SCCC(=O)CCSC(=N)N : > 100 µM (inactive)

The measurements presented in this section are drawn from ChEMBL document CHEMBL1201862.
